All values here come from ChEMBL document CHEMBL5727311.

# tested.on: Histone deacetylase 2 (Homo sapiens)
# Sequence (Q92769 whole entry): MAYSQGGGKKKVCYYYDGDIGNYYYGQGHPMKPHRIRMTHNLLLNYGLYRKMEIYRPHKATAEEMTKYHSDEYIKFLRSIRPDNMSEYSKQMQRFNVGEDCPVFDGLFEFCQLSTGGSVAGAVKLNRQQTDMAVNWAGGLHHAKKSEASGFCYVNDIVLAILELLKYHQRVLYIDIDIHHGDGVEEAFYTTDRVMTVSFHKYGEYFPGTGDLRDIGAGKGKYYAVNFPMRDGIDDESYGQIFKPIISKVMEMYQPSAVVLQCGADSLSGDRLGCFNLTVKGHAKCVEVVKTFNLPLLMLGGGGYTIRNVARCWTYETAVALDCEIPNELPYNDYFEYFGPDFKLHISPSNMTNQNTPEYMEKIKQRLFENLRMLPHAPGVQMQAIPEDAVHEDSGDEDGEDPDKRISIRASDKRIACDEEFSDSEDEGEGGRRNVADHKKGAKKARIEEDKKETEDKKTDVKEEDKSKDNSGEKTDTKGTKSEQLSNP
# protocol.notes: Reporter Displacement Assay: HDAC2 containing a C-terminal HIS-Tag (Proteros) and fluorescently-labeled anti-HIS-antibody are diluted in one vial in assay buffer 50 mM Tris, pH 8.0, 1 mM DTT, 150 mM NaCl, and 0.01% Tween20. Components are pre-incubated for 30 min, then a small volume of reporter probe (Proteros) is added from a highly concentrated stock and incubation is continued for another 30 min. Final concentrations after adding the reporter probe amount to 20 nM HDAC2, 4 nM antibody, and 180 nM probe.
pKd: −log10 of the molar value.
metric: pKd

## Input I have this compound here, Nc1ccc(-c2ccncc2)cc1NC(=O)N1Cc2cncnc2C1 , and I need its recorded pKd.
## Output > 7.00
